experiment: Inhibition of SPP expressed in HEK293 cells in presence of Prl-PP peptide after 30 mins; type: cell-based
property name: IC50 (µM)

(I) CC(C)C[C@H](NC(=O)[C@H](Cc1ccccc1)C[C@@H](O)[C@H](Cc1ccccc1)NC(=O)OC(C)(C)C)C(=O)N[C@@H](Cc1ccccc1)C(N)=O
(II) CC(C)C[C@H](NC(=O)OCc1ccccc1)C(=O)N[C@@H](CC(C)C)C(=O)NCC(=O)CNC(=O)[C@H](CC(C)C)NC(=O)[C@H](CC(C)C)NC(=O)OCc1ccccc1
Exercise: Select one: I or II . Criterion: greater recorded IC50. When you have decided, please share the label of that item.
Solution: I

src = ChEMBL document CHEMBL1147073
